# assay.explanation: Solubility study of tofacitinib citrate in various solvents (HPLC)
# Format: physicochemical
# conditions.used: propylene glycol (PG), organic solvent or mixture, thermodynamic from solid
Structures can show the parent of a compound that is named as a salt.
reported.endpoint: solubility (mg/mL)
Hi! Could you send only the number? It should be in mg/mL, unit omitted.

Query: # lookup: solubility of C[C@@H]1CCN(C(=O)CC#N)C[C@@H]1N(C)c1ncnc2[nH]ccc12 [Tofacitinib Citrate]
Reply: 1.92

---

# assay.explanation: Solubility study of tofacitinib citrate in various solvents (HPLC)
# Format: physicochemical
# conditions.used: aqueous with cosolvent or surfactant or cyclodextrin, thermodynamic from solid; pH 7.5, 50 mM Phosphate Buffer/PEG300 = 70/30
# Description: A solubility study was conducted in the course of formulation development. The suspension was stirred overnight and filtered through 0.22 μm filter. The filtrate was diluted into suitable concentration.
Structures can show the parent of a compound that is named as a salt.
reported.endpoint: solubility (µg/mL)
Hi! Could you send only the number? It should be in µg/mL, unit omitted.

Query: # lookup: solubility of C[C@@H]1CCN(C(=O)CC#N)C[C@@H]1N(C)c1ncnc2[nH]ccc12 [Tofacitinib Citrate]
Reply: 1590

---

# assay.explanation: Solubility study of tofacitinib citrate in various solvents (HPLC)
# Type: physicochemical
# conditions.used: aqueous buffer, thermodynamic from solid; pH 7.5, 50 mM Phosphate Buffer
Structures can show the parent of a compound that is named as a salt.
reported.endpoint: solubility (µg/mL)
Hi! Could you send only the number? It should be in µg/mL, unit omitted.

Query: # lookup: solubility of C[C@@H]1CCN(C(=O)CC#N)C[C@@H]1N(C)c1ncnc2[nH]ccc12 [Tofacitinib Citrate]
Reply: 120

---

# assay.explanation: Solubility study of tofacitinib citrate in various solvents (HPLC)
# Format: physicochemical
# conditions.used: ethanol, organic solvent or mixture, thermodynamic from solid
Counter-ions that a name gives are not always drawn.
reported.endpoint: solubility (mg/mL)
Hi! Could you send only the number? It should be in mg/mL, unit omitted.

Query: # lookup: solubility of C[C@@H]1CCN(C(=O)CC#N)C[C@@H]1N(C)c1ncnc2[nH]ccc12 [Tofacitinib Citrate]
Reply: 0.48

---

# assay.explanation: Solubility study of tofacitinib citrate in various solvents (HPLC)
# Assay type: physicochemical
# conditions.used: water, thermodynamic from solid; H2O
Counter-ions that a name gives are not always drawn.
reported.endpoint: solubility (µg/mL)
Hi! Could you send only the number? It should be in µg/mL, unit omitted.

Query: # lookup: solubility of C[C@@H]1CCN(C(=O)CC#N)C[C@@H]1N(C)c1ncnc2[nH]ccc12 [Tofacitinib Citrate]
Reply: 3000
